- ASSAY TEXT: gradient 5% acetonitrile 3 min, to 50% in 2 min, to 85% in 15 min, held 3 min, 100 µL/min
- SETTINGS: column: Zorbax Extend-C18 2.1 x 50 mm; eluents: water / acetonitrile, 0.1% formic acid
Using RP-LC retention time as the sorting value, the categories are LOW: < 600 s; MID: ≥ 600 s and < 900 s; HIGH: ≥ 900 s

{"MOLECULE": "Cc1csc(-c2cc(S(=O)(=O)NCCC3=CCCCC3)cn2CC(=O)N2CCCC2)n1", "CLASS LABEL": "HIGH"}
{"MOLECULE": "Cc1ccccc1-n1c(SCc2nc(-c3ccccc3)no2)nc2cc3c(cc2c1=O)OCO3", "CLASS LABEL": "HIGH"}
{"MOLECULE": "CCC(=O)NCc1nc2c(n1C)CN(C(=O)c1ccccc1Br)CC2", "CLASS LABEL": "LOW"}
{"MOLECULE": "O=C(N[C@@H]1CN(C(=O)C2CC2)CC[C@@H]1CO)C1CC1", "CLASS LABEL": "LOW"}
{"MOLECULE": "CCc1nc2cc(N3CCC(C(=O)NC(C)c4ccc(OC)cc4)CC3)cnc2nc1CC (centres undefined)", "CLASS LABEL": "MID"}

* * *

Reported values of RP-LC retention time for individual entries
- ASSAY TEXT: gradient 5% acetonitrile 3 min, to 50% in 2 min, to 85% in 15 min, held 3 min, 100 µL/min
- SETTINGS: column: Zorbax Extend-C18 2.1 x 50 mm; eluents: water / acetonitrile, 0.1% formic acid

{"COMPOUND": "Cc1ccc(NC(=O)N2CCC(n3cnc4ccc(F)cc4c3=O)CC2)c(C)c1", "RP-LC retention time": "790 s"}
{"COMPOUND": "O=c1n(CC2CC2)nc2n1CCC(NS(=O)(=O)c1cccc(F)c1)CC2 (centres undefined)", "RP-LC retention time": "717 s"}
{"COMPOUND": "CN1CCCn2cc(S(=O)(=O)Nc3ccc(F)cc3)cc2C1=O", "RP-LC retention time": "670 s"}
{"COMPOUND": "CCc1nn2c(CNS(=O)(=O)Cc3ccc(Cl)cc3)c(-c3ccccc3)nc2s1", "RP-LC retention time": "1020 s"}
{"COMPOUND": "COc1ccc(-c2n[nH]c3c2C(c2ccc(OC)cc2OC)NC3=O)cc1 (centres undefined)", "RP-LC retention time": "736 s"}
{"COMPOUND": "Cc1cccc(-c2nnc(Cc3nc(-c4ccccc4)no3)o2)c1", "RP-LC retention time": "1040 s"}
{"COMPOUND": "CCC(=O)N1CCC(C2CCN(S(=O)(=O)c3ccccc3)CC2)C1 (centres undefined)", "RP-LC retention time": "788 s"}
{"COMPOUND": "CS(=O)(=O)N1CCC(C(=O)Nc2ccccc2F)Oc2ccc(Cl)cc21 (centres undefined)", "RP-LC retention time": "960 s"}
{"COMPOUND": "CNC(=O)c1ccc(-c2nc3cc(NS(=O)(=O)c4ccccc4Cl)ccc3n2C)cc1", "RP-LC retention time": "633 s"}

* * *

- ASSAY TEXT: gradient 5% acetonitrile 3 min, to 50% in 2 min, to 85% in 15 min, held 3 min, 100 µL/min
- SETTINGS: column: Zorbax Extend-C18 2.1 x 50 mm; eluents: water / acetonitrile, 0.1% formic acid
Reported RP-LC retention time by item:

{"COMPOUND": "CCN1C(=O)c2ccccc2Oc2ccc(C(=O)NCCc3cccs3)cc21", "RP-LC retention time": "944 s"}
{"COMPOUND": "COc1ccc(C)cc1NS(=O)(=O)c1cc2c(s1)CCN(C(=O)C1CC1)C2", "RP-LC retention time": "839 s"}
{"COMPOUND": "COC(=O)c1cc2c(=O)n(-c3ccc(Cl)c(C(F)(F)F)c3)ccc2nc1C", "RP-LC retention time": "992 s"}
{"COMPOUND": "Cc1cccc(N2C(=O)CN(S(C)(=O)=O)CC2(C)C(=O)NCc2ccc(F)cc2)c1C (centres undefined)", "RP-LC retention time": "809 s"}
{"COMPOUND": "Cc1cn(C)nc1C(=O)Nc1nnc(-c2cccs2)o1", "RP-LC retention time": "647 s"}
{"COMPOUND": "NCCC1CCN(C(=O)Nc2ccccc2)CC1", "RP-LC retention time": "577 s"}
{"COMPOUND": "O=C(Nc1sc2c(c1C(c1ccncc1)N1CCN(c3ccccn3)CC1)CCCC2)c1ccco1 (centres undefined)", "RP-LC retention time": "630 s"}
{"COMPOUND": "CCOC(=O)c1ccccc1NC(=O)Cn1nc2cc(-c3ccccn3)nc(C)n2c1=O", "RP-LC retention time": "875 s"}
{"COMPOUND": "Cc1nnc2c(=O)n(CC(=O)NC(C)c3ccc(F)cc3)c3cccnc3n12 (centres undefined)", "RP-LC retention time": "677 s"}
